Numbers sourced from the SangsterLogP compilation.

// reported logP for each item listed
test readout: logP

input_smiles=Cc1cc(Br)cnc1NS(=O)(=O)c1ccc(N)cc1 reported=2.05
input_smiles=N#Cc1cccnc1NS(=O)(=O)c1ccc(N)cc1 reported=0.15
input_smiles=Nc1ccc(S(=O)(=O)Nc2ncc(Cl)cc2Cl)cc1 reported=1.97
input_smiles=Nc1ccc(S(=O)(=O)Nc2cccnc2Cl)cc1 reported=1.58
input_smiles=Nc1ccc(S(=O)(=O)Nc2ncccc2Br)cc1 reported=1.24
input_smiles=Nc1ccc(S(=O)(=O)Nc2ccc(Cl)cn2)cc1 reported=1.82
input_smiles=COc1ccccc1NS(=O)(=O)c1ccc(N)cc1 reported=1.56
input_smiles=Cc1cnc(NS(=O)(=O)c2ccc(N)cc2)nc1 reported=0.17
input_smiles=Nc1ccc(S(=O)(=O)Nc2ncc(Br)cc2Br)cc1 reported=2.74
input_smiles=Nc1ccc(S(=O)(=O)Nc2ccc(Cl)nc2)cc1 reported=2.24
input_smiles=Nc1ccc(S(=O)(=O)Nc2ccccc2[N+](=O)[O-])cc1 reported=1.76
input_smiles=Nc1ccc(S(=O)(=O)Nc2ccc(Br)cn2)cc1 reported=2.3
input_smiles=Cc1ccc(NS(=O)(=O)c2ccc(N)cc2)nc1 reported=0.49
input_smiles=Cc1cccnc1NS(=O)(=O)c1ccc(N)cc1 reported=0.26
input_smiles=Nc1ccc(S(=O)(=O)Nc2ccccc2Cl)cc1 reported=2
input_smiles=CCc1cnc(NS(=O)(=O)c2ccc(N)cc2)nc1 reported=0.84
input_smiles=Cc1cnc(NS(=O)(=O)c2ccc(N)cc2)c(Br)c1 reported=1.79
input_smiles=CN(C)c1ccc(NS(=O)(=O)c2ccc(N)cc2)nc1 reported=1.23
input_smiles=Cc1ccccc1NS(=O)(=O)c1ccc(N)cc1 reported=2.03
input_smiles=Nc1ccc(S(=O)(=O)Nc2ncccc2Cl)cc1 reported=0.82
